assay.protocol: yeast 75Q aggregation reduction – 75Q-TubU reporter (AID 1593)
assay.context: Yeast 75Q polyglutamine aggregation reporter
For each record, check the reported score: if it is below 1 write 1, else write -1.

In [3]: df
Out[3]:
                                    compound  label_value
 0  CC1CCc2cc(F)cc3c(=O)c(C(=O)O)cn1c23 (stereo not given)           -1
 1                        CC(=O)NCCCCCC(=O)O           -1
 2         NC(=O)N/N=C/c1ccc([N+](=O)[O-])o1           -1
 3                                NCCCC(=O)O           -1
 4  CCCCC(CC)CN1CN(CC(CC)CCCC)CC(C)(N)C1 (stereo not given)            1
 5  N[C@@H](CCC(=O)N[C@@H](CS)C(=O)NCC(=O)O)C(=O)O           -1
 6                    CC1=CC(=O)c2ccccc2C1=O            1
 7       CCN(CC)CCOCCOC(=O)C1(c2ccccc2)CCCC1           -1
 8  CO[C@@]1(NC(=O)C(C(=O)O)c2ccc(O)cc2)C(=O)N2C(C(=O)O)=C(CSc3nnnn3C)CO[C@@H]21 (stereo not given in full)           -1
 9                  Nc1ccc(C(=O)NCC(=O)O)cc1           -1
10          OC(CCN1CCCCC1)(c1ccccc1)c1ccccc1           -1
11  Oc1c(Cl)cc(Cl)c(Cl)c1Cc1c(O)c(Cl)cc(Cl)c1Cl            1
